# Substrate: CC1=C(CCC(=O)O)c2cc3nc(cc4[nH]c(cc5[nH]c(cc1n2)c(C)c5CCC(=O)O)c(CCC(=O)O)c4C)C(CCC(=O)O)=C3C
# methodSummary: purified protein
# Assay type: biochemical, Corynebacterium glutamicum
# assaySetup: ferrous ammonium sulfate 100 uM, Tris-HCl pH 8.0, 3.3% Tween 20, 5 mM glutathione, 30 °C
Attribute: kcat
Report as a plain number; the unit s⁻¹ is understood.

protein	readoutUnit	kcat
CpfC (coproporphyrin ferrochelatase) (Corynebacterium glutamicum ATCC 13032; E181G) (protein, heterologously expressed in E. coli BL21, purified) MNERTSDAFDALLVLSFGGPEGHEEVRPFLENVTHGRGIPPERLDEVAVHYHHFGGISPINALNREIIANVEKELASRDHKLPVYFGNRNWKPFDNEAAEQMADDGVKNALVLATSAWGGYSGCRQYQEDIQGMIKHLESQGQSITFTKLRQFYDHPRFVSTMAQLVQDSYAKLPDELRDGARLVFTAHSIPLTADNAAGTPEDGSLYSTQVKEASALIAEAVGVSDFDVVWQSRSGSPHTPWLEPDIVDHAVELNEKGQKALVVCPVGFISDHMEVIWDLDSELMEEAEKRNMVVERVATVGPTDEFAALVVDLIEEAELKRVIERLGKLPARGSSVNGAPCGDGCCGTAKHKTARVNPNARSAAPAAN	s⁻¹	0.3

Alright, here's another protein for you.
Q. Bench note: what kcat did CpfC (coproporphyrin ferrochelatase) (Corynebacterium glutamicum ATCC 13032) (protein, heterologously expressed in E. coli BL21, purified) MNERTSDAFDALLVLSFGGPEGHEEVRPFLENVTHGRGIPPERLDEVAVHYHHFGGISPINALNREIIANVEKELASRDHKLPVYFGNRNWKPFDNEAAEQMADDGVKNALVLATSAWGGYSGCRQYQEDIQGMIKHLESQGQSITFTKLRQFYDHPRFVSTMAQLVQDSYAKLPDELRDEARLVFTAHSIPLTADNAAGTPEDGSLYSTQVKEASALIAEAVGVSDFDVVWQSRSGSPHTPWLEPDIVDHAVELNEKGQKALVVCPVGFISDHMEVIWDLDSELMEEAEKRNMVVERVATVGPTDEFAALVVDLIEEAELKRVIERLGKLPARGSSVNGAPCGDGCCGTAKHKTARVNPNARSAAPAAN show?
A. 0.26

Origin of measurements: paper PMC10465345
